# pIC50 per entry
- Test system: HL-60
- Test Description: Cytotoxicity against human HL60 cells after 48 hrs by MTT assay
- Assay type: functional, cell-based
- Experimental Parameters: HL-60, 48 h
pIC50: −log10 of the molar value.
Parameter: pIC50

molecule=C=C1[C@H]2CC[C@@H]3[C@](C2)(C(=O)O[C@@H]2CCC(C)(C)[C@H]4[C@H](O)O[C@@H](OC)[C@@]432)[C@@H]1OC(C)=O system_tested=HL-60 parameter=pIC50 value="< 5.00"
molecule=C=C1[C@H]2CC3=C4[C@](C2)(C(=O)O[C@H]2CCC(C)(C)[C@@H]([C@@H](O)O3)[C@]42C=O)[C@@H]1OC(C)=O system_tested=HL-60 parameter=pIC50 value="< 5.00"
molecule=C[C@@H]1[C@@H]2C[C@H](O)[C@H]3[C@]45CCCC(C)(C)[C@H]4[C@H](O)[C@](O)(OC5)[C@@]3([C@@H]1O)[C@@H]2O system_tested=HL-60 parameter=pIC50 value="< 5.00"
molecule=CC(=O)O[C@H]1C(=O)[C@@]2(C)[C@H]([C@H](OC(=O)c3ccccc3)[C@]3(O)C[C@H](OC(=O)[C@H](O)[C@@H](NC(=O)c4ccccc4)c4ccccc4)C(C)=C1C3(C)C)[C@]1(OC(C)=O)CO[C@@H]1C[C@@H]2O system_tested=HL-60 parameter=pIC50 value="> 8.10"
